Where do these numbers come from? They come from ChEMBL document CHEMBL1149123.

Let's look at some molecules and their measured inhibition.
# target-of-assay: Protein kinase C alpha type (Homo sapiens) (UniProt P17252)
# assay-method-text: Inhibition of PKC alpha at […]
# particulars: concentration not given here

1. COc1cc2c3c(ccnc3c1OC)N(C)C=C2    < 6%
2. COc1ccc(CN2C=Cc3cc(OC)c(OC)c4nccc2c34)cc1.Cl    < 6%
3. COc1cc2c3c(cc[n+](C)c3c1OC)N(C)C=C2.[I-]    < 6%
4. COc1cc2c3c(ccnc3c1OC)N(Cc1ccccc1)C=C2.Cl    < 6%

QUERY: Notebook: pull reported inhibition for Protein kinase C alpha type (Homo sapiens) (UniProt P17252), entry COc1ccc(C[n+]2ccc3c4c(cc(OC)c(OC)c42)C=CN3Cc2cc(OC)c(OC)c(OC)c2)cc1O.[Br-]
RESULT: 43.2%

QUERY: Find inhibition (Protein kinase C alpha type (Homo sapiens) (UniProt P17252)) for the entry COc1cc2c3c(cc[n+](Cc4ccccc4)c3c1OC)N(Cc1ccccc1)C=C2.[Cl-]
RESULT: 71.1%

QUERY: Given the entry COc1cc(CN2C=Cc3cc(OC)c(OC)c4nccc2c34)cc(OC)c1OC.Cl , what inhibition was observed with Protein kinase C alpha type (Homo sapiens) (UniProt P17252)?
RESULT: < 6%

----------
# System: KM-20L2
# assay-method-text: Inhibition of colon KM20L2 cell proliferation
# Type: functional
# particulars: Homo sapiens, read-out: ED50 (the source's name)
EC50 less than 4 µg/mL is Fulfilled; EC50 greater than or equal to 4 µg/mL is Not fulfilled.

The following compounds have reported results that may help.
1) COc1cc(CN2C=Cc3cc(OC)c(OC)c4nccc2c34)cc(OC)c1OC.Cl    Fulfilled
2) COc1cc2c3c(ccnc3c1OC)N(Cc1ccccc1)C=C2.Cl    Fulfilled
3) COc1cc2c3c(cc[n+](Cc4ccccc4)c3c1OC)N(Cc1ccccc1)C=C2.[Cl-]    Fulfilled
4) COc1ccc(C[n+]2ccc3c4c(cc(OC)c(OC)c42)C=CN3Cc2cc(OC)c(OC)c(OC)c2)cc1O.[Br-]    Not fulfilled
5) COc1cc2c3c(cc[n+](C)c3c1OC)N(C)C=C2.[I-]    Not fulfilled

Next up:
QUERY: For this compound, is EC50 lower than 4 µg/mL? COc1cc2c3c(ccnc3c1OC)N(C)C=C2
RESULT: Not fulfilled
